Biological target: CCR5 receptors (Homo sapiens)
Experiment: inhibition of binding of HIV envelope protein (gp120) to CCR5 receptors
Details: procedure of Example 1 of EP 1 118 858 A2; read-out: IC50, inhibition of binding of HIV envelope protein (gp120) to CCR5 receptors
QUANTITY: IC50 (nM)
State just the number; it will be interpreted in nM.

Reported IC50, molecule COC(=O)N[C@@H](CCN1C2CCC1CC(n1c(C)nc3c1CCN(C(=O)OC)C3)C2)c1ccccc1 (stereo partly shown) : ____
7

----------
Target: CCR5 receptors (Homo sapiens, UniProt P51681)
Sequence (P51681 whole entry): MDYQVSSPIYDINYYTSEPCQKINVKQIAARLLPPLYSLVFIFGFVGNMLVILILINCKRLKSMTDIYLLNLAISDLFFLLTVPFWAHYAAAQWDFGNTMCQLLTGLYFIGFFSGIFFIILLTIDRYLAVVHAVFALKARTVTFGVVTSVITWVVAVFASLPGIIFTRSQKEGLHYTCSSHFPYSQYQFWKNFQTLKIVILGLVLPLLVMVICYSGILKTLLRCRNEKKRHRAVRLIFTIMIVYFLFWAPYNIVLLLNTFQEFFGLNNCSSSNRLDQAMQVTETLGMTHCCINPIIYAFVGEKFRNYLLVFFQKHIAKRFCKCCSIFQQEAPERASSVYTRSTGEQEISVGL
Assay: inhibition of binding of HIV envelope protein (gp120) to CCR5 receptors
Conditions: IC50, inhibition of binding of HIV envelope protein (gp120) to CCR5 receptors, procedure of Example 1 of EP 1 118 858 A2
QUANTITY: IC50 (nM)
State just the number; it will be interpreted in nM.

Worked cases, IC50 given:
COMPOUND	UNIT_DESCRIPTOR	QUANTITATIVE_RESULT
COC(=O)N[C@@H](CCN1C2CCC1CC(n1c(C)nc3c1CN(C(C)=O)CC3)C2)c1cccc(F)c1 (stereo partly shown) [Example 17]	nM	15
CC(=O)N[C@@H](CCN1C2CCC1CC(n1c(C)nc3c1CN(C(=O)C(C)C)CC3)C2)c1ccccc1 (stereo partly shown) [Example 9]	nM	7
COC(=O)N1CCc2c(nc(C)n2C2CC3CCC(C2)N3CC[C@H](NC(C)=O)c2cccc(F)c2)C1 (stereo partly shown) [Example 33]	nM	23

Now look at this entry.
Reported IC50, compound COC(=O)N1CCc2c(nc(C)n2C2CC3CCC(C2)N3CC[C@H](NC(C)=O)c2cccc(F)c2)C1 (stereo partly shown) [Example 44, monohydrate] : ____
14
